# PROTOCOL_NOTES: Apparent (non-equilibrium) solubilities of Form C in various solvents
# Type: physicochemical
# RECORDED_CONDITIONS: organic solvent or mixture, thermodynamic from solid; apparent, Tert-butyl methyl ether
MEASUREMENT_NAME: solubility

What does the record list as solubility for NC(=O)c1ccc(N(C(N)=O)c2c(F)cccc2F)nc1-c1ccc(F)cc1F [Form C] ? < 20 mg/mL

###

# PROTOCOL_NOTES: Apparent solubilities of Form A at room temperature and at 60° C.
# Assay type: physicochemical
# RECORDED_CONDITIONS: organic solvent or mixture, thermodynamic from solid, room temperature, Methylene Chloride
MEASUREMENT_NAME: solubility

What does the record list as solubility for NC(=O)c1ccc(N(C(N)=O)c2c(F)cccc2F)nc1-c1ccc(F)cc1F [Form A] ? < 800 µg/mL

###

# PROTOCOL_NOTES: Apparent solubilities of Form A at room temperature and at 60° C.
# Assay type: physicochemical
# RECORDED_CONDITIONS: organic solvent or mixture, thermodynamic from solid, 60° C., 1-Butanol
MEASUREMENT_NAME: solubility (µg/mL)
Value expressed in µg/mL; do not type the unit.

What does the record list as solubility for NC(=O)c1ccc(N(C(N)=O)c2c(F)cccc2F)nc1-c1ccc(F)cc1F [Form A] ? 2900

###

# PROTOCOL_NOTES: Apparent solubilities of Form A at room temperature and at 60° C.
# Assay type: physicochemical
# RECORDED_CONDITIONS: organic solvent or mixture, thermodynamic from solid, room temperature, 1-Butanol
MEASUREMENT_NAME: solubility (µg/mL)
Value expressed in µg/mL; do not type the unit.

What does the record list as solubility for NC(=O)c1ccc(N(C(N)=O)c2c(F)cccc2F)nc1-c1ccc(F)cc1F [Form A] ? 2000

###

# PROTOCOL_NOTES: Apparent solubilities of Form A at room temperature and at 60° C.
# Type: physicochemical
# RECORDED_CONDITIONS: organic solvent or mixture, thermodynamic from solid, 60° C., Butyl Acetate
MEASUREMENT_NAME: solubility (µg/mL)
Value expressed in µg/mL; do not type the unit.

What does the record list as solubility for NC(=O)c1ccc(N(C(N)=O)c2c(F)cccc2F)nc1-c1ccc(F)cc1F [Form A] ? 1900

###

# PROTOCOL_NOTES: Apparent (non-equilibrium) solubilities of Form C in various solvents
# Type: physicochemical
# RECORDED_CONDITIONS: organic solvent or mixture, thermodynamic from solid; apparent, Hexafluorophenol
MEASUREMENT_NAME: solubility
Form entry: enter the amount, then its unit.

What does the record list as solubility for NC(=O)c1ccc(N(C(N)=O)c2c(F)cccc2F)nc1-c1ccc(F)cc1F [Form C] ? 100 mg/mL

###

# PROTOCOL_NOTES: Apparent (non-equilibrium) solubilities of Form C in various solvents
# Assay type: physicochemical
# RECORDED_CONDITIONS: organic solvent or mixture, thermodynamic from solid; apparent, 1-Butanol
MEASUREMENT_NAME: solubility (mg/mL)
Value expressed in mg/mL; do not type the unit.

What does the record list as solubility for NC(=O)c1ccc(N(C(N)=O)c2c(F)cccc2F)nc1-c1ccc(F)cc1F [Form C] ? 50

###

# PROTOCOL_NOTES: Apparent solubilities of Form A at room temperature and at 60° C.
# Assay type: physicochemical
# RECORDED_CONDITIONS: organic solvent or mixture, thermodynamic from solid, room temperature, Methanol
MEASUREMENT_NAME: solubility (µg/mL)
Value expressed in µg/mL; do not type the unit.

What does the record list as solubility for NC(=O)c1ccc(N(C(N)=O)c2c(F)cccc2F)nc1-c1ccc(F)cc1F [Form A] ? 5700

###

# PROTOCOL_NOTES: Apparent (non-equilibrium) solubilities of Form C in various solvents
# Assay type: physicochemical
# RECORDED_CONDITIONS: organic solvent or mixture, thermodynamic from solid; apparent, 2-Propyl Acetate
MEASUREMENT_NAME: solubility

What does the record list as solubility for NC(=O)c1ccc(N(C(N)=O)c2c(F)cccc2F)nc1-c1ccc(F)cc1F [Form C] ? < 20 mg/mL

###

# PROTOCOL_NOTES: Apparent solubilities of Form A at room temperature and at 60° C.
# Format: physicochemical
# RECORDED_CONDITIONS: organic solvent or mixture, thermodynamic from solid, room temperature, Heptane
MEASUREMENT_NAME: solubility

What does the record list as solubility for NC(=O)c1ccc(N(C(N)=O)c2c(F)cccc2F)nc1-c1ccc(F)cc1F [Form A] ? < 900 µg/mL

###

# PROTOCOL_NOTES: Apparent (non-equilibrium) solubilities of Form C in various solvents
# Type: physicochemical
# RECORDED_CONDITIONS: organic solvent or mixture, thermodynamic from solid; apparent, Methyl isobutyl ketone
MEASUREMENT_NAME: solubility

What does the record list as solubility for NC(=O)c1ccc(N(C(N)=O)c2c(F)cccc2F)nc1-c1ccc(F)cc1F [Form C] ? 50 mg/mL

###

# PROTOCOL_NOTES: Apparent solubilities of Form A at room temperature and at 60° C.
# Type: physicochemical
# RECORDED_CONDITIONS: organic solvent or mixture, thermodynamic from solid, room temperature, Acetonitrile
MEASUREMENT_NAME: solubility (µg/mL)
Value expressed in µg/mL; do not type the unit.

What does the record list as solubility for NC(=O)c1ccc(N(C(N)=O)c2c(F)cccc2F)nc1-c1ccc(F)cc1F [Form A] ? 3800

###

# PROTOCOL_NOTES: Apparent (non-equilibrium) solubilities of Form C in various solvents
# Type: physicochemical
# RECORDED_CONDITIONS: thermodynamic from solid; apparent, Water
MEASUREMENT_NAME: solubility

What does the record list as solubility for NC(=O)c1ccc(N(C(N)=O)c2c(F)cccc2F)nc1-c1ccc(F)cc1F [Form C] ? < 20 mg/mL

###

# PROTOCOL_NOTES: Apparent solubilities of Form A at room temperature and at 60° C.
# Format: physicochemical
# RECORDED_CONDITIONS: organic solvent or mixture, thermodynamic from solid, room temperature, Dimethylformamide
MEASUREMENT_NAME: solubility

What does the record list as solubility for NC(=O)c1ccc(N(C(N)=O)c2c(F)cccc2F)nc1-c1ccc(F)cc1F [Form A] ? > 100 mg/mL

###

# PROTOCOL_NOTES: Apparent (non-equilibrium) solubilities of Form C in various solvents
# Type: physicochemical
# RECORDED_CONDITIONS: organic solvent or mixture, thermodynamic from solid; apparent, Toluene
MEASUREMENT_NAME: solubility (mg/mL)
Value expressed in mg/mL; do not type the unit.

What does the record list as solubility for NC(=O)c1ccc(N(C(N)=O)c2c(F)cccc2F)nc1-c1ccc(F)cc1F [Form C] ? 20

###

# PROTOCOL_NOTES: Apparent solubilities of Form A at room temperature and at 60° C.
# Format: physicochemical
# RECORDED_CONDITIONS: thermodynamic from solid, room temperature, Water
MEASUREMENT_NAME: solubility

What does the record list as solubility for NC(=O)c1ccc(N(C(N)=O)c2c(F)cccc2F)nc1-c1ccc(F)cc1F [Form A] ? < 900 µg/mL

###

# PROTOCOL_NOTES: Apparent solubilities of Form A at room temperature and at 60° C.
# Type: physicochemical
# RECORDED_CONDITIONS: organic solvent or mixture, thermodynamic from solid, room temperature, Ethanol
MEASUREMENT_NAME: solubility

What does the record list as solubility for NC(=O)c1ccc(N(C(N)=O)c2c(F)cccc2F)nc1-c1ccc(F)cc1F [Form A] ? 5700 µg/mL

###

# PROTOCOL_NOTES: Apparent (non-equilibrium) solubilities of Form C in various solvents
# Type: physicochemical
# RECORDED_CONDITIONS: organic solvent or mixture, thermodynamic from solid; apparent, Butyl acetate
MEASUREMENT_NAME: solubility (mg/mL)
Value expressed in mg/mL; do not type the unit.

What does the record list as solubility for NC(=O)c1ccc(N(C(N)=O)c2c(F)cccc2F)nc1-c1ccc(F)cc1F [Form C] ? 33

###

# PROTOCOL_NOTES: Apparent (non-equilibrium) solubilities of Form C in various solvents
# Format: physicochemical
# RECORDED_CONDITIONS: organic solvent or mixture, thermodynamic from solid; apparent, N,N-dimethylacetamide
MEASUREMENT_NAME: solubility (mg/mL)
Value expressed in mg/mL; do not type the unit.

What does the record list as solubility for NC(=O)c1ccc(N(C(N)=O)c2c(F)cccc2F)nc1-c1ccc(F)cc1F [Form C] ? 100

###

# PROTOCOL_NOTES: Apparent (non-equilibrium) solubilities of Form C in various solvents
# Type: physicochemical
# RECORDED_CONDITIONS: organic solvent or mixture, thermodynamic from solid; apparent, Heptane
MEASUREMENT_NAME: solubility

What does the record list as solubility for NC(=O)c1ccc(N(C(N)=O)c2c(F)cccc2F)nc1-c1ccc(F)cc1F [Form C] ? < 20 mg/mL
